tested on: SF-539 CNS; experiment: NCI-60 one-dose screen, 48 h; conditions: 10 µM unless noted
This is part of a sample that, as a whole, favours compounds with a hit. Of some 83,000 tested, about 20% had one in any assay. Activity calls are given as the source filed them. The calls were made as follows: active = growth percent below 10; inactive = the rest.
Please state which outcome applies, choosing from TRUE for active, FALSE for inactive

Solved entries (count: 4):
INSERT INTO assay_data (compound, class_name) VALUES
  ('CC(=O)C1C(=O)N(C)C(=O)N(C)C1=O', 'FALSE'),
  ('COc1c(O)c2c3c(c1OC)-c1ccccc1CC3N(C)CC2 (stereo unspecified)', 'FALSE'),
  ('CCC(CC)(c1ccccc1)C(OC(N)=O)c1ccccc1 (stereo unspecified)', 'FALSE'),
  ('Oc1c(Br)cc(Br)cc1Br.[Cu+2]', 'FALSE');

Exercise: Would you mind telling me which call this test gave CCC(C)(C)O ?
Key: FALSE

Exercise: Would you mind telling me which call this test gave CC(C)C1c2ccc(O)cc2Oc2nc(N)c(C#N)c(N)c21 (stereo unspecified) ?
Key: FALSE

Exercise: Would you mind telling me which call this test gave CC(CC(C#N)(c1ccccc1)c1ccccc1)N1CCOCC1 (stereo unspecified) ?
Key: FALSE

Exercise: Would you mind telling me which call this test gave O=C(c1cccs1)C1NO[N+]([O-])=C1c1cccs1 (stereo unspecified) ?
Key: FALSE

Exercise: Would you mind telling me which call this test gave Oc1ccc2c3c1O[C@H]1c4[nH]c5ccccc5c4C[C@@]4(O)C(C2)N(CC2CC2)CC[C@]314 ?
Key: FALSE

Exercise: Would you mind telling me which call this test gave CCCCCCCCCCCCOc1ccc(C(=O)Oc2ccc(CSP3(=O)OCC4OC(n5cnc6c(N)ncnc65)C(F)C4OP(=O)(O)OCC4OC(n5ccc(=O)[nH]c5=O)C(F)C4O3)cc2)cc1 (stereo unspecified) ?
Key: FALSE

Exercise: Would you mind telling me which call this test gave Cc1ccc(N)cc1[As]=[As]c1cc(N)ccc1C (stereo unspecified) ?
Key: TRUE

====

system: HL-60(TB) leukemia; test: NCI-60 one-dose screen, 48 h (100 = growth as untreated, 0 = no growth, -100 = all killed); conditions: 10 µM unless noted
About 83,000 compounds went through this panel and 20% of them were active in at least one assay; those are over-represented in the sample as a whole. Active and inactive are the calls of the source. How the source made its calls: active means growth percent below 10; inactive means the rest.
For each entry below, report its growth value.

Some solved cases for reference:
INSERT INTO assay_data (molecule, measurement) VALUES
  ('O=C(CN1CCN(C(=O)c2ccccc2)CC1)Nc1ccccc1SCc1ccccc1', '80.5% (inactive)'),
  ('C=C(C[C@@](O)(C(=O)Oc1ccccc1)C(=O)C1CCCCC1)c1ccccc1', '112% (inactive)'),
  ('O=C(O)c1cccc([N+](=O)[O-])c1/C=C/c1ccccc1', '97.4% (inactive)'),
  ('O=c1ccn2c(n1)OC1CC2OC1COC(c1ccccc1)(c1ccccc1)c1ccccc1 (centres undefined)', '89.2% [100 µM] (inactive)'),
  ('O=C(Nc1nc2ccccc2s1)c1cc(-c2ccc(F)cc2)n2nc(-c3ccccc3)cc2n1', '107% (inactive)'),
  ('O=C(O)CCN1CCN(c2cccc(Cl)c2)CC1', '97% (inactive)'),
  ('CSc1ncccc1C(=O)OCC(=O)Nc1oc(C)c2c(C)n[nH]c(=O)c12', '98.2% (inactive)'),
  ('CC(C)CCC[C@@H](C)[C@H]1CC[C@H]2[C@@H]3CC=C4C[C@@H](OC(=O)Cc5ccc(N(CCCl)CCCl)cc5)CC[C@]4(C)[C@H]3CC[C@]12C', '86.9% (inactive)');

Hi there! I need growth for each item below, if you can.
1. COc1ccc(/C=C/C(c2cc(OC)c(OC)c(OC)c2)n2cncn2)cc1 (centres undefined)
2. c1cc[n+](Cc2c3ccccc3cc3c2ccc2ccccc23)cc1
3. COc1ccc(/C=C2\N=C(c3ccccc3)N(c3cc(OC)c(OC)cc3C(=O)N3N=C(C)CC3=O)C2=O)cc1
4. O=[N+]([O-])CC(c1ccccc1F)c1c[nH]c2ccccc12 (centres undefined)
5. CN=C(N)N/N=C(\C)c1ccc2c(c1)Cc1cc(/C(C)=N/NC(N)=NC)ccc1-2

Key:
1. -17.9% (active)
2. 36% (inactive)
3. 107% (inactive)
4. 51.1% (inactive)
5. -23.2% (active)

====

System: LOX IMVI melanoma
Assay: NCI-60 one-dose screen, 48 h (100 = growth as untreated, 0 = no growth, -100 = all killed)
Details: 10 µM unless noted
Protocol: Growth inhibition of the LOX IMVI human tumor cell line is measured as a screen for anti-cancer activity. Cells are grown in 96 well plates and exposed to the test compound for 48 hours. Compounds are tested at a single concentration, which is 10^-5 M for most compounds. The reported endpoint is percent growth (GI% or GIPRCNT), where numbers from 0 - 100% represent growth inhibition, and numbers from -100% - 0 represent cell death. For example, a value of 40 represents 60% growth inhibition. […]
About 83,000 compounds went through this panel and 20% of them were active in at least one assay; those are over-represented in the sample as a whole.
endpoint name: growth (%)
Numbers only, in %.

INSERT INTO assay_data (compound, unit_abbrev, measurement) VALUES
  ('COc1c(O)c2c3c(c1OC)-c1ccccc1CC3N(C)CC2 (stereo unspecified)', '%', 99.3),
  ('C[As](=O)(O)c1ccc(C(=O)O)cc1', '%', 115),
  ('N#[N+]c1cnc([O-])[nH]c1=O', '%', 85.2);

Hi there! I need growth for each item below, if you can.
1. O=S(=O)(O)c1ccc(-c2ccc([As](=O)(O)O)cc2)cc1
2. CC(C)OC(=S)[S-].[Au+].c1ccc([PH+](c2ccccc2)c2ccccc2)cc1
3. CCOC(=O)c1cnc(SCc2ccc(Cl)c(Cl)c2)nc1N1CC1
4. O=C1NC(=O)C(Cc2ccccc2)(Cc2ccccc2)C(=O)N1
5. C/C1=C/C(=O)O[C@@H]2C[C@@H](CC[C@H](C)/C=C\C=C\CC1)O[C@@](OCCc1ccccc1)([C@@H]1CSC(=O)N1)C2
6. ClCCN(CCCl)c1nc(Cl)c(C2CC(c3ccccc3)=NN2c2ccccc2)s1 (stereo unspecified)

Key:
[99.8, -64.9, 23.7, 90.4, 4.46, 85.3]

Hi there! I need growth for each item below, if you can.
1. Cc1ccccc1O
2. S=P(NC1CCCCC1)(N1CC1)N1CC1

Key:
1. 91.5
2. 96.5

====

For each entry below, report its growth value.
system: M14 melanoma; assay: NCI-60 one-dose screen, 48 h (100 = growth as untreated, 0 = no growth, -100 = all killed); conditions: 10 µM unless noted
The panel holds about 83,000 compounds, 20% with a hit somewhere; the sample as a whole holds those more often.
Numbers only, in %.

INSERT INTO results (compound, assay_target, unit_abbrev, measurement) VALUES
  ('CC1(C)N=C(N)N=C(N)N1c1ccc(OCCCCOc2ccc(S(=O)(=O)F)cc2)c(Cl)c1', 'M14 melanoma', '%', 19);

Hi there! I need growth for each item below, if you can.
1. CC(=O)[O][Hg][CH2]C1(C)COC(C)([CH2][Hg][O]C(C)=O)CO1 (stereo unspecified)
2. CCOc1cc(/C=N\Nc2nnc(C)n2N)c(C)cc1N(CCCl)CCCl
3. CC1(C)N=C(N)N=C(N)N1c1ccc(CCCCc2ccc(Cl)cc2S(=O)(=O)F)c(Cl)c1

Key:
1. 39
2. 13.8
3. 18

Hi there! I need growth for each item below, if you can.
1. C[CH2][Pb]([CH2]C)([CH2]C)[O]C(=O)COc1ccccc1
2. CC1(CF)NC(=O)NC1=O (stereo unspecified)

Key:
1: 14.6; 2: 104

====

For each entry below, report its growth value.
tested on: HL-60(TB) leukemia; assay: NCI-60 one-dose screen, 48 h (100 = growth as untreated, 0 = no growth, -100 = all killed); details: 10 µM unless noted
This is part of a sample that, as a whole, favours compounds with a hit. Of some 83,000 tested, about 20% had one in any assay. Calls of active or inactive are those of the source. How the source made its calls: active means growth percent below 10; inactive means the rest.

INSERT INTO results (compound, assay_target, endpoint_name, measurement) VALUES
  ('CCSC(SCC)c1ccc(Cl)cc1', 'HL-60(TB) leukemia', 'growth', '116% (inactive)'),
  ('Clc1ccc(N/N=C(\c2ccccc2)c2ccccn2)nc1', 'HL-60(TB) leukemia', 'growth', '-28.3% (active)'),
  ('COc1ccc2nc3ccccc3c(NCc3ccc(Cl)cc3)c2c1', 'HL-60(TB) leukemia', 'growth', '-64.5% (active)');

Hi there! I need growth for each item below, if you can.
1. O=[n+]1c2ccccc2n([O-])c2cc(Cl)ccc21
2. Cc1nc2cc(Nc3nc(Nc4ccc(F)cc4)nc(-c4ccc(Cl)cc4)n3)ccc2n1Cc1ccccc1
3. Oc1c(CN2CCC(N3CCOCC3)CC2)cc(Cc2cc(CN3CCC(N4CCOCC4)CC3)c(O)c3ncccc23)c2cccnc12
4. COc1ccc(/C=C/C(=O)c2cc3c(N)c(C(=O)Nc4ccc(OC)cc4)sc3nc2C)cc1
5. CN(C)CCNC(=O)c1ccc(-c2nc3ccc4[nH]ncc4c3c3c2C2CCC3C2)cc1 (stereo unspecified)
6. N#Cc1c(NC(=O)c2ccccc2I)sc2c1CCCC2
7. OCC1OC(n2cnc3c(Cl)ncnc32)CC1O (stereo unspecified)
8. CSc1nc2c(c(=O)[nH]1)N=C1c3ccccc3C(=O)C1C(c1ccc(F)cc1)N2 (stereo unspecified)

Key:
-0.993% (active)
-29.6% (active)
-5.88% (active)
2.26% (active)
-20.6% (active)
12.6% (inactive)
121% (inactive)
91.4% (inactive)

Hi there! I need growth for each item below, if you can.
1. CC(C)=CCC[C@](C)(O)C1CC[C@]2(C)[C@@H]1CC[C@@H]1[C@@]3(C)CC/C(=N\OCCC#N)C(C)(C)[C@@H]3CC[C@]12C (stereo partly specified)
2. C[CH2][Pb]([CH2]C)([CH2]C)[O]C(=O)COc1ccccc1
3. Cn1c(=O)c2c(nc(N3CCCC3)n2C)n(C)c1=O
4. CCC1S/C(=N\N=C(/C)c2cccs2)N(c2ccccc2)C1=O (stereo unspecified)
5. C#Cc1cccc(Nc2ncnc3ccc(NC(=O)c4ccccc4)cc23)c1
6. COc1ccc2c(c1)C(c1cc(OC)c3c(c1)OCO3)C1=C(COC1=O)N2 (stereo unspecified)
7. CC(=O)c1cnc(-c2ccccc2)nc1CBr
8. O=[N+]([O-])c1ccc(OCCCOc2ccccc2)cc1

Key:
["69.3% (inactive)", "-48.1% (active)", "95.4% (inactive)", "59.2% (inactive)", "71.9% (inactive)", "4.04% (active)", "41.5% (inactive)", "95.5% (inactive)"]
